Test system: MS2 coat protein
assay.comment: apparent KD of MS2 coat protein; designed switch direction (-1 OFF switch, 1 ON switch): -1; higher = weaker reporter binding
assay.context: Eterna round: R95; input ligand: microRNA oligo, concentration not stated
Answer each item with its documented apparent KD of MS2 coat protein.
Give the value, in units of nM, as a plain number.

Q. # lookup: apparent KD of MS2 coat protein of CAUGAUCUUCGGAUCAUGUACAUGAGGAUCACCCAUGUGACGAGUUACAUGUUUUACAAGCUUUUUGCUCGUCUUAU [Sensor v3 - Turn-off variant 1 - 14] (puzzle: Sensor v3, turn-off variant 1)
A. 99.4

Q. # lookup: apparent KD of MS2 coat protein of AAGAAACAUGAGGAUCACCCAUGUGAGGAUAUGAAAAAGAAAAGAAAAGAAAGAAGGGUCAGAAGGCACAAAGG [salish99-ex1_r3_028] (puzzle: Exclusion 1)
A. 25.3

Q. # lookup: apparent KD of MS2 coat protein of GAAAAGGUAGGAUAUACGAAAAAAGAGGGUAGAAAAAAAACACAUGAGGAUCACCCAUGUAGAAGGACCAAAAG [salish99_ex2_r3_025] (puzzle: Exclusion 2)
A. 32.1

Q. # lookup: apparent KD of MS2 coat protein of AAUAAGCUAGGAUAUACAUGAGGAUCACCCAUGUGAGGGCACGGCCGGCGCGUUUCCGGUAGAAGGAGUCAUAA [Exc;s3-VII] (puzzle: Exclusion 3)
A. 33.2

Q. # lookup: apparent KD of MS2 coat protein of AUGAGGUUAGGAUAUACAUGAGGAUCACCCAUGUUGAAAGGUUAGAUAGGCGAAGAUGGUAGAAGGAACAAAGA [JR_Exclu3_Sub054] (puzzle: Exclusion 3)
A. 38.2

###

System: MS2 coat protein
assay.comment: apparent KD of MS2 coat protein; designed switch direction (-1 OFF switch, 1 ON switch): -1; higher = weaker reporter binding
assay.context: input ligand: FMN 200 uM
metric: apparent KD of MS2 coat protein
Write down the value, and be sure its unit follows.

Q. # lookup: apparent KD of MS2 coat protein of CUGAGCAGACGGAGAUCCAACAUGAGGAUCACCCAUGUCUCAAAAGCUUUUUGCUUGUCUUAUCCUCCUCUGUUCAC [Esqutian] (Eterna round: R96, puzzle: Sensor v3, turn-off variant 1)
A. 13.6 nM

Q. # lookup: apparent KD of MS2 coat protein of GCGCAAAGCUAGGAUAUCCAGGGAUCUUCCCGCGGAGAAGGAGCCACAUGAGGAUCACCCAUGUGGUGAUCCUG [eternacac ex6r4 sub7] (Eterna round: R97, puzzle: Exclusion 6)
A. 14.9 nM

Q. # lookup: apparent KD of MS2 coat protein of AUCGUGCAGCUUUGCUGUACGAGUACAUGAGGAUCACCCAUGUAGGAUAUGGUACGCUUUGCGUGCUAGAAGGAUAUGCGUUUG [EX ENG3 1.45] (Eterna round: R96, puzzle: Exclusion NG 3)
A. 46.7 nM

Q. # lookup: apparent KD of MS2 coat protein of CAGUACUGAGGAUAUACAUGAGGAUCACCCAUGUGUCUUAUAUUAGGAAACUAGGUAUGUAGAAGGCAGUACUG [Omei Ex3 Mod of Eli 4.27 v4] (Eterna round: R97, puzzle: Exclusion 3)
A. 304 nM

Q. # lookup: apparent KD of MS2 coat protein of AAAAUGUGAGGAUAUCACGGAGCUCCGCGUGACGAAGCUCCUGAGAAGGCACAUGAGGAUCACCCAUGUCCUGU [EX4 A.30] (Eterna round: R97, puzzle: Exclusion 4)
A. 296 nM

Q. # lookup: apparent KD of MS2 coat protein of CUUUUCAGAGGAUAUAGAUAUUAUCACAUGAGGAUCACCCAUGUAACCCUACAUUCACCACUAGAAGGCUGUUAAG [lam1] (Eterna round: R97, puzzle: Exclusion 5)
A. 27.1 nM

Q. # lookup: apparent KD of MS2 coat protein of CAGUACUGAGGAUAUACAUGAGGAUCACCCAUGUUCUUCGGCUAGGAAACUAGCAAAGGUAGAAGGCAGUACUG [Salish 065 m16] (Eterna round: R97, puzzle: Exclusion 3)
A. 285 nM

Q. # lookup: apparent KD of MS2 coat protein of AGCAGACGAGGAUAUAAACGAUAUAACAUGAGGAUCACCCAUGUACGAUCGAUAGAUCGUUUAGAAGGCGUCUGCU [E5/9-A1] (Eterna round: R97, puzzle: Exclusion 5)
A. 14.5 nM

Q. # lookup: apparent KD of MS2 coat protein of CGUUAGUGAGGAUAUGGAAAUAGGUACAUGAGGAUCACCCAUGUUUGAAGGGAAAAGAGCCUAGAAGGCACUAACG [JR_Ex5_Sub055] (Eterna round: R97, puzzle: Exclusion 5)
A. 23.5 nM

Q. # lookup: apparent KD of MS2 coat protein of AUUGUUUAUGUAGGAUAUGCCUGGCGUGCCUUUGCAGAAGGACAUGAGGAUCACCCAUGUAACAUGAGGCUCACCCAUGUCGCU [salish99_ExNG1_r04_112] (Eterna round: R96, puzzle: Exclusion NG 1)
A. 432 nM

###

Tested on: K4 kissing-loop RNA reporter;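 also: bound reporter read as fluorescence of individual clusters on recovered sequencing chips by microscopy, with normalized cluster intensities fitted with a binding model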
assay.comment: apparent KD of K4 kissing-loop reporter; higher = weaker reporter binding
assay.context: Eterna round: R107; input ligand: tryptophan 2.4 mM
Label condition met when apparent KD of K4 kissing-loop reporter is at or above 200 nM; otherwise label condition not met.

Q. Threshold query (apparent KD of K4 kissing-loop reporter >= 200 nM) on AUGUAUGAAUUAGGAUAUCGUGAGCCAUGCAUAUAUAUGAUAAAUGGAUAUGUCGUAGUGAUGUUACGAGAAGGAGUGUGGAGUA [KL-XFMN-B2]
A. condition not met

Q. Threshold query (apparent KD of K4 kissing-loop reporter >= 200 nM) on UGACUGGACUGAAGGAGCGAGCGAGACAAAGUCUCGAAAAUUCAGUGAUGUUGAUAUAUAACUCAGGUAGGUCGCAGUCUAGUCU [ArgBS 5 #SwitchBubble #StaticStem]
A. condition met

Q. Threshold query (apparent KD of K4 kissing-loop reporter >= 200 nM) on AAUGGCGAGUGAUGUUCGCCCACCAAUGAUACCAGUGCCAUCGGACACCCUUGGCAGCAUACGGGCAGUGAUGUUGCUCUUGGAA [Exclusion Theophylline A GF 26]
A. condition not met

Q. Threshold query (apparent KD of K4 kissing-loop reporter >= 200 nM) on AAGCAGUCUCUUGUAACCAUCGAAGAUGGACGAGGACCGGUACGGCCGCCACUCGGAGUGAUGUUCCGAAGACUGCAAAAUAAAA [MatMod 15 - Jieux - Exclusion - Tryptophan A]
A. condition met

Q. Threshold query (apparent KD of K4 kissing-loop reporter >= 200 nM) on CAUACGCAUGGAGGAUAUGAGAUUUCUCAUAUUAUUUAAUAUUCUCAGUGAUGUUGAGAUAUAAACUCAGAAGGCCAUGUGUAUG [Ex FMN B 2]
A. condition met

Q. Threshold query (apparent KD of K4 kissing-loop reporter >= 200 nM) on AUGGGUUGUUGAAGGAGCGCCGCCAGUGAUGUUGGGAGUUAGAUACCAGUGAUGUUGGGCCGGCAGGUAGGUCGCGGCGAUUUAU [Exclusion Arginine B GF 19]
A. condition met

Q. Threshold query (apparent KD of K4 kissing-loop reporter >= 200 nM) on UGACUGGACUGAAGGAGCGCUAAACUCCUAGUGAUGUUAGGGAAACGAGACAAAGUCUCGAGGCAGGUAGGUCGCAGUCUAGUCU [FiskerMod 1 - Jieux - Same State - Arginine B]
A. condition met

Q. Threshold query (apparent KD of K4 kissing-loop reporter >= 200 nM) on AAACAUCACUGGGAGUGAUGUUCUCAGUGACGAGGACCGGUACGGCCGCCACUCGCGAGAGAUAUAGUCUAGUAAUGACUGCAUU [Excl Tryptophan A V9]
A. condition met

Q. Threshold query (apparent KD of K4 kissing-loop reporter >= 200 nM) on ACAGUUGCUAGUGAUACCAGACUAGCACUACGUAGUAUGUCAAGUGAUGUUUGACAACUAGUCCCUUGGCAGCGCGAUACGACUG [#12 K4 Theophylline B Same State]
A. condition not met

Q. Threshold query (apparent KD of K4 kissing-loop reporter >= 200 nM) on UAUGAAGGUGGAGGAUAUUGAUUGAGCCUUGGUCAGGAGUGAUGUUCCGGGAAGCCUUGGGUUCAUCGAGAAGGCCAAGGAUAGU [#09 K4 FMN B Same State]
A. condition met

###

Answer each item with its documented apparent KD of MS2 coat protein.
Test system: MS2 coat protein
assay.comment: apparent KD of MS2 coat protein; designed switch direction (-1 OFF switch, 1 ON switch): -1; higher = weaker reporter binding
assay.context: input ligand: FMN 200 uM
Give the value, in units of nM, as a plain number.

Q. # lookup: apparent KD of MS2 coat protein of GUAAGUUCAGGAUAUGAUGAAUUAAACAUGAGGAUCACCCAUGUAGAUCCUGAAUUAACAUCAGAAGGGAAUAUUU [JL-ex5-4.53 Brourd mod] (Eterna round: R97, puzzle: Exclusion 5)
A. 22.2

Q. # lookup: apparent KD of MS2 coat protein of CAUAUACAUGAGGAUCACCCAUGUGAGGAUAUGCUUUAUUAUUAUUAUUAUUAUUAUUGCAGAAGGUACAUUAC [LRO-Excl01-12] (Eterna round: R97, puzzle: Exclusion 1)
A. 23.9

Q. # lookup: apparent KD of MS2 coat protein of UAACCCGCGCGAGGAUAUCACAUGAGGAUCACCCAUGUGGCACUCCGUCACCGGGCAGUCCCGAGUGAGAAGGUGCAGGCGGGA [Bireisen] (Eterna round: R96, puzzle: Exclusion NG 2)
A. 62.8
